Notes on pIC50 obtained with HPK1 (Homo sapiens, UniProt Q92918).
pIC50: −log10 of the molar value.

{"Molecule": "O=C1CN(S(=O)(=O)CCCN2CC(F)C2)CCN1c1cccc(-c2cnc3[nH]cc(C4CC4)c3c2Cl)c1", "pIC50": "≥ 8.00"}
{"Molecule": "O=C1CNCCN1c1cncc(-c2cnc3[nH]cc(C4CC4)c3c2Cl)c1", "pIC50": "6.00 to 7.00"}
{"Molecule": "COC(=O)c1c[nH]c2ncc(-c3cccc(N4CCNCC4=O)c3)c(Cl)c12", "pIC50": "6.00 to 7.00"}
{"Molecule": "CCc1c[nH]c2ncc(-c3cccc(N4CCC[C@@H](CO)C4=O)c3)c(Cl)c12", "pIC50": "≥ 8.00"}

Query block: Provide measured pIC50 value, entry: COCC(=O)N1CCN(c2cccc(-c3cnc4[nH]cc(C#Cc5ncn(C)n5)c4c3Cl)c2)C(=O)C1
Result block: 7.00 to 8.00

Query block: Provide measured pIC50 value, entry: CS(=O)(=O)N1CCN(c2cccc(-c3cnc4[nH]cc(C5CC5)c4c3Cl)c2)C(=O)C1
Result block: ≥ 8.00

Query block: Provide measured pIC50 value, entry: CCc1c[nH]c2ncc(-c3cccc(N4CCN(C(=O)COc5cccc(C6O[C@H](CO)[C@@H](O)[C@H](O)[C@H]6O)c5)CC4=O)c3)c(Cl)c12 (stereo partly shown)
Result block: ≥ 8.00

====

Molecular target: HPK1 (Homo sapiens)
Sequence (Q92918 1-346 limits assumed): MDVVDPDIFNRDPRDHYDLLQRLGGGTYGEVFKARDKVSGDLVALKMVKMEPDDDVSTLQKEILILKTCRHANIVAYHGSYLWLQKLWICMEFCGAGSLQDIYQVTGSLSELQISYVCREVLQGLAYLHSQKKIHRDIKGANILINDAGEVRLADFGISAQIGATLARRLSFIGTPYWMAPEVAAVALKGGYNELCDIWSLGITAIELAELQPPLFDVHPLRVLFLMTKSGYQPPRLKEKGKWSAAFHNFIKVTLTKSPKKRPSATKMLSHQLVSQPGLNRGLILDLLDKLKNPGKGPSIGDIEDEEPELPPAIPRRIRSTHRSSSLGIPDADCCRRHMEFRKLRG
Assay readout: IC50

{"Chemical structure": "O=C1CNCCN1c1nc(-c2cnc3[nH]cc(C4CC4)c3c2Cl)cs1", "Assay readout": "IC50", "Val": "10 to 100 nM"}
{"Chemical structure": "O=C1CN(S(=O)(=O)CCCN2CCOCC2)CCN1c1cccc(-c2cnc3[nH]cc(C4CC4)c3c2Cl)c1", "Assay readout": "IC50", "Val": "≤ 10 nM"}
{"Chemical structure": "COCCN1CCN(c2cccc(-c3cnc4[nH]cc(CC(F)F)c4c3Cl)c2)C(=O)C1", "Assay readout": "IC50", "Val": "10 to 100 nM"}

The record that follows has no IC50 shown yet.
Query block: Provide measured IC50 value, entry: CCc1c[nH]c2ncc(-c3cccc(N4CCN(C(=O)CC56CC7CC(CC(C7)C5)C6)CC4=O)c3)c(Cl)c12
Result block: 10 to 100 nM

====

Biological target: FLT3-ITD (Homo sapiens, UniProt P36888)
Construct: The FLT3-ITD protein was purchased from Invitrogen (PV6190)
Assay: FLT3-ITD enzyme inhibition assay (HTRF KinEASE-TK)
Conditions: FLT3-ITD protein, ATP 15 μM
Method: The compound was dissolved in 100% DMSO at the concentration of 10 mM. The FLT3-ITD protein was purchased from Invitrogen (PV6190). […] Then added 10 μL of detection buffer (0.25×TK-antibody Eu3+-cryptate, 0.125 μM streptavidine-XL 665) to the assay plate and centrifuged at 1000 rpm for 1 minute then incubated at 25° C. for 60 minutes and 4° C. incubated for overnight, the product was determined. Based on the results, the IC50 value of the compound was calculated.
Assay readout: IC50

Reference set (2 entries):
{"Molecule": "O=C1CNCCN1c1cccc(-c2cnc3[nH]cc(C#Cc4ccccn4)c3c2Cl)c1 [Example 7]", "Assay target": "FLT3-ITD (Homo sapiens, UniProt P36888)", "IC50": "0.01 to 0.1 µM"}
{"Molecule": "CCc1c[nH]c2ncc(-c3cccc(N4CCN(C(=O)CCCO[C@@H]5O[C@H](CO)[C@@H](O)[C@H](O)[C@H]5O)CC4=O)c3)c(Cl)c12 [Example 48]", "Assay target": "FLT3-ITD (Homo sapiens, UniProt P36888)", "IC50": "≤ 0.01 µM"}

The record that follows has no IC50 shown yet.
Query block: Provide measured IC50 value, entry: CCc1c[nH]c2ncc(-c3cccc(N4CCN(C(=O)[C@@H](N)Cc5ccccc5)CC4=O)c3)c(Cl)c12 [Example 43]
Result block: 0.01 to 0.1 µM
